system: 931267-113-T-J1-PDC multicell spheroid viability; assay: Anticancer human tumor 931267-113-T-J1-PDC patient-derived colon adenocarcinoma cell line growth inhibition [PI3K]; details: second compound 10 µM; first compound 0.01 µM; active compounds read low
Listed below: viability, T/C values for each entry.
State just the number; it will be interpreted in %.

Known results for molecules:
>>> numeric_readout("CCN1CCN(Cc2ccc(Nc3ncc(F)c(-c4cc(F)c5nc(C)n(C(C)C)c5c4)n3)nc2)CC1 + CC(Nc1ncnc2nc[nH]c12)c1cc2cccc(Cl)c2c(=O)n1-c1ccccc1")
86.7
>>> numeric_readout("CC(C)n1nc(-c2ccc3oc(N)nc3c2)c2c(N)ncnc21 + CC(Nc1ncnc2nc[nH]c12)c1cc2cccc(Cl)c2c(=O)n1-c1ccccc1")
84.3

From here, focus on the item given below.
Task: Consider the molecule CC(C)n1nc(-c2ccc3oc(N)nc3c2)c2c(N)ncnc21 + Cc1nc(NC(=O)N2CCCC2C(N)=O)sc1-c1ccnc(C(C)(C)C(F)(F)F)c1 and give its measured viability, T/C.
Output: 45.7

---

tested on: 931267-113-T-J1-PDC multicell spheroid viability; assay: Anticancer human tumor 931267-113-T-J1-PDC cell line growth inhibition [PI3K]; details: second compound 10 µM; first compound 0.0316 µM; active compounds read low;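 further: viability read 7 days after compound addition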
Listed below: viability, T/C values for each entry.
State just the number; it will be interpreted in %.

Task: Consider the molecule CC(C)NCC(C(=O)N1CCN(c2ncnc3c2C(C)CC3O)CC1)c1ccc(Cl)cc1 (stereo not given) + CC(Nc1ncnc2nc[nH]c12)c1cc2cccc(Cl)c2c(=O)n1-c1ccccc1 and give its measured viability, T/C.
Output: 95.2

Task: Consider the molecule CC1(C)CCC(Nc2ncc(C(F)(F)F)c(-c3c[nH]c4c(P(C)(C)=O)c(C#N)ccc34)n2)CN1 (stereo not given) + CC(Nc1ncnc2nc[nH]c12)c1cc2cccc(Cl)c2c(=O)n1-c1ccccc1 and give its measured viability, T/C.
Output: 92.2

Task: Consider the molecule Cn1nccc1Nc1nccc(-c2ccn(C(CO)c3ccc(Cl)c(F)c3)c(=O)c2)n1 (stereo not given) + CC(Nc1ncnc2nc[nH]c12)c1cc2cccc(Cl)c2c(=O)n1-c1ccccc1 and give its measured viability, T/C.
Output: 88.2

Task: Consider the molecule CCCS(=O)(=O)Nc1ccc(F)c(C(=O)c2c[nH]c3ncc(-c4ccc(Cl)cc4)cc23)c1F + Cc1nc(NC(=O)N2CCCC2C(N)=O)sc1-c1ccnc(C(C)(C)C(F)(F)F)c1 and give its measured viability, T/C.
Output: 61.2

Task: Consider the molecule Cn1ncnc1[C@H]1c2n[nH]c(=O)c3cc(F)cc(c23)N[C@@H]1c1ccc(F)cc1 + CC(Nc1ncnc2nc[nH]c12)c1cc2cccc(Cl)c2c(=O)n1-c1ccccc1 and give its measured viability, T/C.
Output: 100

---

Listed below: viability, T/C values for each entry.
tested on: 931267-113-T-J1-PDC multicell spheroid viability; assay: Anticancer human tumor 931267-113-T-J1-PDC cell line growth inhibition [PI3K]; conditions: second compound 0.00316 µM; first compound 0.1 µM; active compounds read low;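 further: viability read 7 days after compound addition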

Known results for molecules:
>>> result("CCCS(=O)(=O)Nc1ccc(F)c(C(=O)c2c[nH]c3ncc(-c4ccc(Cl)cc4)cc23)c1F + CC(Nc1ccc2c(c1)OCCn1cc(N3C(=O)OCC3C(F)F)nc1-2)C(N)=O")
"105%"
>>> result("CC(C)NCC(C(=O)N1CCN(c2ncnc3c2C(C)CC3O)CC1)c1ccc(Cl)cc1 (stereo not drawn) + CC(Nc1ccc2c(c1)OCCn1cc(N3C(=O)OCC3C(F)F)nc1-2)C(N)=O")
"90.8%"

From here, focus on the item given below.
Task: Consider the molecule CC(Cn1ccc(-c2ccc(C#N)c(Cl)c2)n1)NC(=O)c1cc(C(C)O)[nH]n1 (stereo not drawn) + CC(Nc1ccc2c(c1)OCCn1cc(N3C(=O)OCC3C(F)F)nc1-2)C(N)=O and give its measured viability, T/C.
Output: 101%
